// IC50 collected for S-COMT enzyme (Homo sapiens)
measurement-name: IC50 (nM)

INSERT INTO measurements (compound, measurement_name, output_unit, reported) VALUES
  ('N#Cc1cc(O)c(O)c(C#N)c1CCC(=O)O [Example 17]', 'IC50', 'nM', 20),
  ('N#Cc1cc(O)c(O)c(C#N)c1CCCCC(=O)O [Example 16]', 'IC50', 'nM', 15),
  ('O=C(O)CCc1c([N+](=O)[O-])cc(O)c(O)c1[N+](=O)[O-] [Example 11]', 'IC50', 'nM', 30),
  ('O=C(O)CCCCc1c([N+](=O)[O-])cc(O)c(O)c1[N+](=O)[O-] [Example 13]', 'IC50', 'nM', 20),
  ('O=Cc1cc(O)c(O)c(C=O)c1CCCCC(=O)O [Example 14]', 'IC50', 'nM', 30);

----------
- method-summary: Determination of plasma concentrations after oral dosing
- Type: in vivo
- condition-details: rat, in vivo, t = 5 h, male Wistar rats, orally dosed 10 mg/kg, read-out: Plasma c
measurement-name: concentration at 5 h (ng/mL)

INSERT INTO measurements (structure, measurement_name, reported) VALUES
  ('O=C(O)CCc1c([N+](=O)[O-])cc(O)c(O)c1[N+](=O)[O-]', 'concentration at 5 h', 490);

----------
- method-summary: Determination of plasma concentrations after oral dosing
- Assay type: in vivo
- condition-details: rat, plasma, t = 30 min, male Wistar rats, orally dosed 10 mg/kg, read-out: Plasma c
concentration at 0.5 h listing for selected compounds.
measurement-name: concentration at 0.5 h (ng/mL)

INSERT INTO measurements (compound, output_unit, reported) VALUES
  ('N#Cc1cc(O)c(O)c(C#N)c1CCCCC(=O)O', 'ng/mL', 2000),
  ('CC(=O)C(=Cc1cc(O)c(O)c([N+](=O)[O-])c1)C(C)=O [Comparison compound 2, reference compound]', 'ng/mL', 530);

----------
- method-summary: Determination of plasma concentrations after oral dosing
- Assay type: in vivo
- condition-details: rat, in vivo, t = 30 min, male Wistar rats, orally dosed 10 mg/kg, read-out: Plasma c
measurement-name: concentration at 0.5 h

INSERT INTO assay_data (structure, measurement_name, reported) VALUES
  ('O=C(O)CCc1c([N+](=O)[O-])cc(O)c(O)c1[N+](=O)[O-]', 'concentration at 0.5 h', '2100 ng/mL');
